# system.name: Alpha-1B adrenergic receptor (Homo sapiens)
# Sequence (P35368 whole entry): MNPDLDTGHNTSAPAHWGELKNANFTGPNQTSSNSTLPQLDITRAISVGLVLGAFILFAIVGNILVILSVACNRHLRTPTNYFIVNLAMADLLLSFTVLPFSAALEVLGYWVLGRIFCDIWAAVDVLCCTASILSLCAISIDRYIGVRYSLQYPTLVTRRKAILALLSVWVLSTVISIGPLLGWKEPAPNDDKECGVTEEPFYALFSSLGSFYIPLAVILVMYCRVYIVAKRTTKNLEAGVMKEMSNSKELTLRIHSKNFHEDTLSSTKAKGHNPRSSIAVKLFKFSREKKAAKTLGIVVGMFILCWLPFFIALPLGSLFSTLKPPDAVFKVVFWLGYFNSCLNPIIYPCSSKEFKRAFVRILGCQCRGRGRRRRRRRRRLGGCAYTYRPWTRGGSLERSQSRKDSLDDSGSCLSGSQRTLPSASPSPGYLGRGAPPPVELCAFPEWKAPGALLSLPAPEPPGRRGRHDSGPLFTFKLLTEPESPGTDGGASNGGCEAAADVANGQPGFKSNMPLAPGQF
# assay.remarks: Binding affinity to human adrenergic Alpha-1B receptor expressed in rat intact fibroblasts
readout: pKi
Numbers only, as −log10 of the molar value.

Below, 5 molecules whose answers are already recorded.
O=c1c2ccccc2c(Cc2ccc(Cl)cc2)nn1C1CCCN(CCc2ccc(OCCCN3CCCCCC3)cc2)CC1 (configuration not stated) : 7.50
CN1CCC[C@@H]1Cn1nc(Cc2ccc(F)cc2)c2ccccc2c1=O : 7.10
O=c1c2ccccc2c(Cc2ccc(O)cc2)nn1C[C@H]1CCCN1CCCCc1ccc(OCCCN2CCCCCC2)cc1 : 6.90
CN1CCC[C@@H]1Cn1nc(Cc2cccc(Cl)c2)c2ccccc2c1=O : 6.20
CN1CCC[C@H]1Cn1nc(Cc2ccc(Cl)cc2)c2ccccc2c1=O : 7.70

For each of the molecules below, note its pKi.
1. CN1CCCCC(n2nc(Cc3ccc(Cl)cc3)c3ccccc3c2=O)C1 (configuration not stated)
2. CN1CCC[C@@H]1Cn1nc(CCc2ccccc2)c2ccccc2c1=O

Solution:
6.80
6.70

For each of the molecules below, note its pKi.
1. CN1CCC[C@@H]1Cn1nc(Cc2ccc(O)cc2)c2ccccc2c1=O
2. COc1ccc(Cc2nn(C[C@H]3CCCN3CCCCc3ccc(OCCCN4CCCCCC4)cc3)c(=O)c3ccccc23)cc1
3. O=c1c2ccccc2c(Cc2ccc(Cl)cc2)nn1C[C@H]1CCCN1CCCCCc1ccc(OCCCN2CCCCCC2)cc1
4. O=c1c2ccccc2c(Cc2ccc(Cl)cc2)nn1C1CCCN(CCCc2ccc(OCCCN3CCCCCC3)cc2)CC1 (configuration not stated)
5. O=c1c2ccccc2c(Cc2ccc(Cl)cc2)nn1C1CCCN(Cc2ccc(OCCCN3CCCCCC3)cc2)CC1 (configuration not stated)

Solution:
6.40
7.30
7.30
7.10
6.90

For each of the molecules below, note its pKi.
1. Cc1ccc(Cc2nn(C[C@H]3CCCN3C)c(=O)c3ccccc23)cc1
2. COc1ccc(Cc2nn(C[C@H]3CCCN3C)c(=O)c3ccccc23)cc1
3. CN(C)CCn1nc(Cc2ccc(Cl)cc2)c2ccccc2c1=O
4. CN1CCC[C@@H]1Cn1nc(Cc2ccc(Cl)cc2)c2ccccc2c1=O
5. CN1CCCC1CCn1nc(Cc2ccc(Cl)cc2)c2ccccc2c1=O (configuration not stated)
6. CN1CCC[C@@H]1Cn1nc(Cc2ccc(F)c(F)c2)c2ccccc2c1=O
7. O=c1c2ccccc2c(Cc2ccc(Cl)cc2)nn1C1CCCN(CCCCc2ccc(OCCCN3CCCCCC3)cc2)CC1 (configuration not stated)
8. CCCCCc1nn(C[C@H]2CCCN2C)c(=O)c2ccccc12

Solution:
[7.80, 6.80, 6.70, 7.90, 6.50, 6.50, 7.00, 6.00]

====

Sequence of the target: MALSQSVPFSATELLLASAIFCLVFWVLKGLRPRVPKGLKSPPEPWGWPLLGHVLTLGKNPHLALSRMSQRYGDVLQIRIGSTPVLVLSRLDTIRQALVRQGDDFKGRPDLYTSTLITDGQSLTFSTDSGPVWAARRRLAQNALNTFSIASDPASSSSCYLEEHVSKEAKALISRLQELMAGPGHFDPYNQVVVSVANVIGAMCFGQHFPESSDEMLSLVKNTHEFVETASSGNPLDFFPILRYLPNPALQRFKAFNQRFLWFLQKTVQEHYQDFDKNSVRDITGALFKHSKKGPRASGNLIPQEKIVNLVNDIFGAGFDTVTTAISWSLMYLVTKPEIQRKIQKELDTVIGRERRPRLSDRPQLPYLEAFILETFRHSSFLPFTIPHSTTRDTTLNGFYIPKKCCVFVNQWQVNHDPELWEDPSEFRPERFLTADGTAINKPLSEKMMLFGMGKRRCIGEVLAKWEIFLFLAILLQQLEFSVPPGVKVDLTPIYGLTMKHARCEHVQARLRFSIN
readout: IC50

Problem: Quote IC50 reported for O=c1c2ccccc2c(Cc2ccc(Cl)cc2)nn1C[C@H]1CCCN1CCCCc1ccc(OCCCN2CCCCCC2)cc1 please.
Solution: > 3 µM
